Would you kindly list IC50 for each of these binders?
target: human 4-1BB on CHO-K1 cells (human, UniProt Q07011 24-255); assay: FACS blocking of 4-1BBL
Sequence (Q07011 24-255): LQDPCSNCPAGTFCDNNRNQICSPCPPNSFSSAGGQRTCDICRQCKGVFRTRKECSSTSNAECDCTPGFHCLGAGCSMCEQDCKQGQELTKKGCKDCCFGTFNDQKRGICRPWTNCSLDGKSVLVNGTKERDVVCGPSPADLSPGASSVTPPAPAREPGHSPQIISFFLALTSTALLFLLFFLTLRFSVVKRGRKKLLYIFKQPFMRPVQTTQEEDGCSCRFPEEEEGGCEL
Numbers only, in nM.

Examples with their reported IC50 follow.
1. PR001771 (antibody, V domains shown) VH: EVQLLESGGGLVQPGGSLRLSCAASGFTFSNYAMTWVRQPPGKGLEWVSSISGSGGSTYYADSVKGRFTISRDNSKNTLYLQMNSLRAEDTAVYYCAKEGTGTTSDYYYNVDVWGQGTTVTVSS: 21.6
2. PR001830 (antibody, V domains shown) VH: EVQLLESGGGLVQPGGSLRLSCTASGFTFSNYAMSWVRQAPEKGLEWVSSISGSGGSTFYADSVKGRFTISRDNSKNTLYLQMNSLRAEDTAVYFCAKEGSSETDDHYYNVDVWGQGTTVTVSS: 2.32
3. PR001834 (antibody, V domains shown) VH: EVQLLESGGGLVQPGGSLRLSCAASGFTFSGYAMTWVRQPPEKGLEWVSSISGSGNNTFYADSVKGRFTISRDNSKNTLYLQMNSLRAEDTAVYYCAKEGTTETDDYHYNMDVWGQGTTVTVSS: 2.93

Field: next binder
In: Fill in the blank: the reported IC50 of PR001776 (antibody, V domains shown) VH: EVQLLESGGGLVQPGGSLRLSCAASGFTFSSYAMSWVRQAPEKGLEWVSAISSSGGSTYYADSVKGRFTISRDNSKNTLYLQMNSLRAEDTAVYYCAKDGVTTPSYYYYYDMDVWGQGTTVTVSS is ____.
Out: 10.9

Every entry's value here was drawn from patent US20230242658A1.
